target: 14-3-3γ (Homo sapiens, UniProt P61981); construct: made in house; host or cells: E. coli NiCo21 (DE3); assay: Fluorescence anisotropy (FA) binary binding study: 14-3-3 titrated to fluorescein-labelled peptide; conditions: Table S4; ΔG minus ΔG of 1, FA; replicate 2
Sequence (P61981 whole entry): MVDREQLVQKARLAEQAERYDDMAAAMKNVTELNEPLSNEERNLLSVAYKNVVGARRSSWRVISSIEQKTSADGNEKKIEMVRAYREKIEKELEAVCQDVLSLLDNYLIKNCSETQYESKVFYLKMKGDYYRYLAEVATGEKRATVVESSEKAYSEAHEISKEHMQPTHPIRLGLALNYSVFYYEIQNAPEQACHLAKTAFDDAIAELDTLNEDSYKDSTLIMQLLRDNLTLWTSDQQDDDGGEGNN
Where a SMILES comes first, the peptide text is derived from it. [ ]: non-standard residue; d: D form. ξ: configuration not given here. Phe(4-NO2) = N[C@@H](Cc1ccc([N+](=O)[O-])cc1)C(=O)O; ξAla(4-thiazolyl) = NC(Cc1cscn1)C(=O)O; pS = N[C@@H](COP(=O)(O)O)C(=O)O; β3hS = N[C@@H](CO)CC(=O)O; Nva = CCC[C@H](N)C(=O)O; βAla = NCCC(=O)O
Here the recorded ΔΔG to 1 is given for each entry.
Give just the numeric value; kcal/mol need not be written.

# COMPOUND, NUMERIC_RESULT
data = [
    ("CCC[C@H](NC(=O)[C@H](N)CCCCN)C(=O)N[C@@H](Cc1ccc([N+](=O)[O-])cc1)C(=O)NC(Cc1cscn1)C(=O)N[C@@H](COP(=O)(O)O)C(=O)N[C@@H](Cc1ccc([N+](=O)[O-])cc1)C(=O)N[C@@H](CO)CC(=O)NCCC(=O)N[C@@H](C)C(=O)N[C@@H](CCCCN)C(N)=O (stereo partly drawn) [5c] (H-[dK][Nva][Phe(4-NO2)][ξAla(4-thiazolyl)][pS][Phe(4-NO2)][β3hS][βAla]AK-NH2; N-terminus and C-terminus assumed)", 2.0),
]

Could you now look at the following compound, please?
Consider CCC[C@H](NC(=O)[C@H](N)CCCCN)C(=O)N[C@@H](Cc1ccc([N+](=O)[O-])cc1)C(=O)NC(Cc1cscn1)C(=O)N[C@@H](COP(=O)(O)O)C(=O)N[C@@H](C)C(=O)N[C@@H](CO)CC(=O)NCCC(=O)N[C@@H](Cc1ccc([N+](=O)[O-])cc1)C(=O)N[C@@H](CCCCN)C(N)=O (stereo partly drawn) [4c] (H-[dK][Nva][Phe(4-NO2)][ξAla(4-thiazolyl)][pS]A[β3hS][βAla][Phe(4-NO2)]K-NH2; N-terminus and C-terminus assumed) . Its measured ΔΔG to 1 is 1.7

###

target: 14-3-3γ (Homo sapiens); construct: made in house; host or cells: E. coli NiCo21 (DE3); assay: Fluorescence anisotropy (FA) binary binding study: 14-3-3 titrated to fluorescein-labelled peptide; details: Table S4, point-mutated peptides; FA, 14-3-3 titrated to 10 nM FITC-labelled peptide, HEPES pH 7.4, room temperature, 4PL fit; mean of n = 3; read-out: Affinity Kd
Where a SMILES comes first, the peptide text is derived from it. [ ]: non-standard residue; d: D form. ξ: configuration not given here. Phe(4-NO2) = N[C@@H](Cc1ccc([N+](=O)[O-])cc1)C(=O)O; ξAla(4-thiazolyl) = NC(Cc1cscn1)C(=O)O; pS = N[C@@H](COP(=O)(O)O)C(=O)O; β3hS = N[C@@H](CO)CC(=O)O; Nva = CCC[C@H](N)C(=O)O; βAla = NCCC(=O)O
Here the recorded Kd is given for each entry.
Give just the numeric value; nM need not be written.

Record CCC[C@H](NC(=O)[C@H](N)CCCCN)C(=O)N[C@@H](Cc1ccc([N+](=O)[O-])cc1)C(=O)N[C@@H](C)C(=O)N[C@@H](COP(=O)(O)O)C(=O)N[C@@H](Cc1ccc([N+](=O)[O-])cc1)C(=O)N[C@@H](CO)CC(=O)NCCC(=O)N[C@@H](Cc1ccc([N+](=O)[O-])cc1)C(=O)N[C@@H](CCCCN)C(N)=O [3a] (H-[dK][Nva][Phe(4-NO2)]A[pS][Phe(4-NO2)][β3hS][βAla][Phe(4-NO2)]K-NH2; N-terminus and C-terminus assumed) has 14-3-3γ (Homo sapiens) Kd equal to 71

Record CCC[C@H](NC(=O)[C@H](N)CCCCN)C(=O)N[C@@H](Cc1ccc([N+](=O)[O-])cc1)C(=O)NC(Cc1cscn1)C(=O)N[C@@H](COP(=O)(O)O)C(=O)N[C@@H](Cc1ccc([N+](=O)[O-])cc1)C(=O)N[C@@H](CO)CC(=O)NCCC(=O)N[C@@H](Cc1ccc(O)cc1)C(=O)N[C@@H](CCCCN)C(N)=O (stereo partly drawn) [5a] (H-[dK][Nva][Phe(4-NO2)][ξAla(4-thiazolyl)][pS][Phe(4-NO2)][β3hS][βAla]YK-NH2; N-terminus and C-terminus assumed) has 14-3-3γ (Homo sapiens) Kd equal to 1500

Record CCC[C@H](NC(=O)[C@H](N)CCCCN)C(=O)N[C@@H](Cc1ccc([N+](=O)[O-])cc1)C(=O)NC(Cc1cscn1)C(=O)N[C@@H](COP(=O)(O)O)C(=O)N[C@@H](Cc1ccc([N+](=O)[O-])cc1)C(=O)N[C@@H](CO)CC(=O)NCCC(=O)N[C@@H](C)C(=O)N[C@@H](CCCCN)C(N)=O (stereo partly drawn) [5c] (H-[dK][Nva][Phe(4-NO2)][ξAla(4-thiazolyl)][pS][Phe(4-NO2)][β3hS][βAla]AK-NH2; N-terminus and C-terminus assumed) has 14-3-3γ (Homo sapiens) Kd equal to 2800

Record CCC[C@H](NC(=O)[C@H](N)CCCCN)C(=O)N[C@@H](Cc1ccc([N+](=O)[O-])cc1)C(=O)NC(Cc1cscn1)C(=O)N[C@@H](COP(=O)(O)O)C(=O)N[C@@H](C)C(=O)N[C@@H](CO)CC(=O)NCCC(=O)N[C@@H](Cc1ccc([N+](=O)[O-])cc1)C(=O)N[C@@H](CCCCN)C(N)=O (stereo partly drawn) [4c] (H-[dK][Nva][Phe(4-NO2)][ξAla(4-thiazolyl)][pS]A[β3hS][βAla][Phe(4-NO2)]K-NH2; N-terminus and C-terminus assumed) has 14-3-3γ (Homo sapiens) Kd equal to 1300

Record CCC[C@H](NC(=O)[C@H](N)CCCCN)C(=O)N[C@@H](Cc1ccc([N+](=O)[O-])cc1)C(=O)NC(Cc1cscn1)C(=O)N[C@@H](COP(=O)(O)O)C(=O)N[C@@H](Cc1ccccc1)C(=O)N[C@@H](CO)CC(=O)NCCC(=O)N[C@@H](Cc1ccc([N+](=O)[O-])cc1)C(=O)N[C@@H](CCCCN)C(N)=O (stereo partly drawn) [4b] (H-[dK][Nva][Phe(4-NO2)][ξAla(4-thiazolyl)][pS]F[β3hS][βAla][Phe(4-NO2)]K-NH2; N-terminus and C-terminus assumed) has 14-3-3γ (Homo sapiens) Kd equal to 55

Record CCC[C@H](NC(=O)[C@H](N)CCCCN)C(=O)N[C@@H](Cc1ccc([N+](=O)[O-])cc1)C(=O)NC(Cc1cscn1)C(=O)N[C@@H](COP(=O)(O)O)C(=O)N[C@@H](Cc1ccc([N+](=O)[O-])cc1)C(=O)N[C@@H](CO)CC(=O)NCCC(=O)N[C@@H](Cc1ccccc1)C(=O)N[C@@H](CCCCN)C(N)=O (stereo partly drawn) [5b] (H-[dK][Nva][Phe(4-NO2)][ξAla(4-thiazolyl)][pS][Phe(4-NO2)][β3hS][βAla]FK-NH2; N-terminus and C-terminus assumed) has 14-3-3γ (Homo sapiens) Kd equal to 1400
